meta.source: patent US8093207B2

# experiment: Absorption of non-sCT peptides from non-enteric coated capsules given orally to fasted dogs
# study-conditions: in vivo, 2.4 mg; Table 9: dog, oral non-enteric capsule, at least 500 mg citric acid, 50 mg lauroylcarnitine; ± sem

molecule | Tmax [min]
Cc1cc(O)cc(C)c1C[C@H](N)C(=O)N[C@H](CCCNC(=N)N)C(=O)N[C@@H](Cc1ccccc1)C(=O)N[C@@H](CCCCN)C(N)=O [Dmt-DALDA] | 28

----------
# experiment: Absorption of non-sCT peptides from non-enteric coated capsules given orally to fasted dogs
# study-conditions: in vivo, 2.4 mg; Table 9: dog, oral non-enteric capsule, at least 500 mg citric acid, 50 mg lauroylcarnitine; ± sem

smiles-code | measurement-unit | Cmax
Cc1cc(O)cc(C)c1C[C@H](N)C(=O)N[C@H](CCCNC(=N)N)C(=O)N[C@@H](Cc1ccccc1)C(=O)N[C@@H](CCCCN)C(N)=O | ng/mL | 7.48
